target: GSK3α (GST-full length GSK3α) (Homo sapiens (Human), UniProt P49840); test: GSK3α TR-FRET kinase assay; type: biochemical; settings: 1 nM GSK3α, 4 μM ATP, 30 minute preincubation, Table 16; read-out: GSK3-A TR-FRET BIOCHEMICAL (TR-FRET); IC50
Sequence (P49840 whole entry): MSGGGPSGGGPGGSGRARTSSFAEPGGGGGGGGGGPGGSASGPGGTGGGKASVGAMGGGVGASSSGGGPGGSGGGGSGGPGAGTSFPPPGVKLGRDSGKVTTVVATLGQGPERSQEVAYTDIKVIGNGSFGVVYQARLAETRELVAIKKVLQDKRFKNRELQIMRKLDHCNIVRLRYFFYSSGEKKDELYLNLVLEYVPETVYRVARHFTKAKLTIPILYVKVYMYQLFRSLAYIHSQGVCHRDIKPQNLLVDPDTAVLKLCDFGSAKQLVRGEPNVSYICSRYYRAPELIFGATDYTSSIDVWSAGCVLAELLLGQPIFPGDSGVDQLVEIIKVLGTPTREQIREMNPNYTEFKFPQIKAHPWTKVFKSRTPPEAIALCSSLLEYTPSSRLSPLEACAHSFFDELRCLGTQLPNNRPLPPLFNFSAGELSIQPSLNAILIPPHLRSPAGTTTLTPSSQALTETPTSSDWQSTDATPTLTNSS
pIC50: −log10 of the molar value.
OUTCOME_MEASURE: pIC50

| COMPOUND | RESULT |
| --- | --- |
| CCC1(c2cccc(N3CCCc4ncccc43)c2)C2=C(CC(C)(C)CC2=O)Nc2n[nH]cc21 (centres unmarked) [Compound 889639] | ≥ 7.00 |
| CC1(C)CC(=O)C2=C(C1)Nc1n[nH]cc1C21COCCOC1 [Compound 912094] | 5.30 to 6.00 |
| CC1(C)CC(=O)C2=C(C1)Nc1n[nH]cc1[C@]21CCOC(C)(C)C1 [Compound 924298] | 5.30 to 6.00 |
| CCC1(c2cccc(N(C)c3ccnc(F)c3)c2)C2=C(CC(C)(C)CC2=O)Nc2n[nH]cc21 (centres unmarked) [Compound 917146] | ≥ 7.00 |
| CCC1(c2cccc(N(C)c3ccncn3)c2)C2=C(CC(C)(C)CC2=O)Nc2n[nH]cc21 (centres unmarked) [Compound 902970] | ≥ 7.00 |
| CCC1(c2cccc(-c3cnn(C)c3)c2)C2=C(CC(C)(C)CC2=O)Nc2n[nH]c(C)c21 (centres unmarked) [Compound 913038] | 6.00 to 7.00 |
| CC[C@@]1(c2cccc(-c3cc(C)nn3-c3ccccc3)c2)C2=C(CC(C)(C)NC2=O)Nc2n[nH]cc21 [Compound 951845] | 6.00 to 7.00 |
| CC[C@@]1(c2cccc(-c3ccnc(C(F)F)c3)c2)C2=C(CC(C)(C)NC2=O)Nc2n[nH]cc21 [Compound 949388] | 5.30 to 6.00 |
| CC[C@]1(c2cccc(-c3c(C#N)c(C)nn3C)c2)C2=C(CC(C)(C)NC2=O)Nc2n[nH]cc21 [Compound 951844] | ≥ 7.00 |
| CCn1cc(N2CCC3=C(C2=O)[C@](CC)(c2cccc(C(F)(F)F)c2)c2c[nH]nc2N3)cn1 [Compound 949868] | 6.00 to 7.00 |
| CCC1(c2cccc(C(C)C)c2)C2=C(CC(C)(C)NC2=O)Nc2n[nH]c(C(F)(F)F)c21 (centres unmarked) [Compound 949747] | ≥ 7.00 |
| CC[C@]1(c2cccc(-c3cnn(C4CC4(F)F)c3)c2)C2=C(CC(C)(C)NC2=O)Nc2n[nH]cc21 (some centres unmarked) [Compound 950060] | ≥ 7.00 |
| Cc1[nH]nc2c1C1(CCCCC1)C1=C(CC(C)(C)CC1=O)N2 [Compound 877288] | < 5.30 |
| CC[C@@]1(c2cccc(OC)c2)C2=C(CC(C)(C)NC2=O)Nc2n[nH]c(C)c21 [Compound 949337] | 6.00 to 7.00 |
| CCCC(C(C)=O)c1cccc(C2(CC)C3=C(CC(C)(C)CC3=O)Nc3n[nH]cc32)c1 (centres unmarked) [Compound 909205] | ≥ 7.00 |
| CCC1(c2cccc(-c3ccnc(C)c3)c2)C2=C(CC(C)(C)CC2=O)Nc2n[nH]c(C(F)(F)F)c21 (centres unmarked) [Compound 917289] | 6.00 to 7.00 |
| CC[C@]1(c2cccc(-c3cn(C)nc3C3CC3)c2)C2=C(CC(C)(C)NC2=O)Nc2n[nH]cc21 [Compound 951706] | ≥ 7.00 |
| CCC1(c2cccc(N3CCOc4ncccc43)c2)C2=C(CC(C)(C)CC2=O)Nc2n[nH]cc21 (centres unmarked) [Compound 918279] | ≥ 7.00 |
| CCC1(c2cccc(-c3cnn(-c4cnccn4)c3)c2)C2=C(CC(C)(C)NC2=O)Nc2n[nH]cc21 (centres unmarked) [Compound 952207] | 6.00 to 7.00 |
| CC1(C)CC(=O)C2=C(C1)Nc1n[nH]cc1C21CCN(S(=O)(=O)C2CCCC2)CC1 [Compound 909206] | ≥ 7.00 |
| CCC1(c2ccccc2)C2=C(Nc3n[nH]cc31)C1CCC1C2=O (centres unmarked) [Compound 861716] | 5.30 to 6.00 |
| CC1(C)CC(=O)C2=C(C1)Nc1n[nH]cc1C21CCCNCC1 (centres unmarked) [Compound 889571] | < 5.30 |
| CCC1(c2cccc(C(F)(F)F)c2)C2=C(CC(C)N(c3cnc(OC)nc3)C2=O)Nc2n[nH]cc21 (centres unmarked) [Compound 949352] | ≥ 7.00 |
